Origin of values: patent EP0429987B1

Assign inhibition at 1 µM to each entry below.
# study target: HIV-1 RT (Human immunodeficiency virus type 1 group M subtype B)
# Construct: Reverse transcriptase enzyme from the LAV strain of Human Immunodeficiency Virus (HIV-1) (1) was isolated; made in house; host or cells: E. coli JM109, clone pBRTprtl+ in vector pIBI21 (lac promoter, IPTG induction)
# measurement notes: Reverse Transcriptase (RT) Assay: inhibition of RNA-dependent DNA polymerase activity
# Format: biochemical
# experimental context: @ 1µM (footnote *); read-out: RT Assay % inhibition
Answer in %, number only, no unit symbol.

Identify the reported inhibition at 1 µM for the following entry. `CCN1c2ncccc2C(=O)N(C)c2c(C)cc(N3CCCC3)nc21` 94

Identify the reported inhibition at 1 µM for the following entry. `CCN1c2ncccc2C(=O)N(C)c2ccc(N3CCOCC3)nc21` 68

Identify the reported inhibition at 1 µM for the following entry. `CCN1c2nc(N(C)C)ccc2NC(=O)c2cccnc21` 98

Identify the reported inhibition at 1 µM for the following entry. `CN(C)CCN1C(=O)c2cccnc2N(C2CC2)c2ncccc21` 8

Identify the reported inhibition at 1 µM for the following entry. `CCc1ccnc2c1NC(=O)c1cccnc1N2C1CCC1` 75

Identify the reported inhibition at 1 µM for the following entry. `CCN1c2ncccc2C(=O)N(C)c2ccc(NCc3ccc(OC)cc3)nc21` 61

Identify the reported inhibition at 1 µM for the following entry. `C=CCNc1ccc2c(n1)N(CC)c1ncccc1C(=O)N2C` 70

Identify the reported inhibition at 1 µM for the following entry. `CCN1c2ncccc2C(=O)N(C)c2cc(Cl)c(N)nc21` 52

Identify the reported inhibition at 1 µM for the following entry. `O=C1Nc2c(Cl)ccnc2N(C2CC2)c2ncccc21` 83

Identify the reported inhibition at 1 µM for the following entry. `CCN1c2ncccc2C(=O)N(C)c2ccc(N(C)Cc3ccc(OC)cc3)nc21` 64

---

Assign inhibition at 10 µg/mL to each entry below.
# study target: HIV-1 RT (Human immunodeficiency virus type 1 group M subtype B)
# Construct: Reverse transcriptase enzyme from the LAV strain of Human Immunodeficiency Virus (HIV-1) (1) was isolated; made in house; host or cells: E. coli JM109, clone pBRTprtl+ in vector pIBI21 (lac promoter, IPTG induction)
# measurement notes: Reverse Transcriptase (RT) Assay: inhibition of RNA-dependent DNA polymerase activity
# Assay type: biochemical
# experimental context: read-out: RT Assay % inhibition @ 10 µg/ml
Answer in %, number only, no unit symbol.

Identify the reported inhibition at 10 µg/mL for the following entry. `CCN1c2ncccc2C(=NC#N)Nc2c(C)cc(C)nc21` 100

Identify the reported inhibition at 10 µg/mL for the following entry. `CCN1c2ncccc2C(=O)Nc2c(C(F)(F)F)cc(C)nc21` 100

Identify the reported inhibition at 10 µg/mL for the following entry. `CC[C@H](C)N1c2ncccc2NC(=O)c2cccnc21` 88

Identify the reported inhibition at 10 µg/mL for the following entry. `CN1C(=O)c2cccnc2N(C#N)c2ncccc21` 44

Identify the reported inhibition at 10 µg/mL for the following entry. `CN1C(=O)c2cccnc2N(C2CC2)c2ncccc21` 100
